assayed-target: T1, O772P 3-repeat TM on transfected NIH/3T3 cells (human)
T1 construct: also called NIH/3T3 O772P 3-repeat
T1 chain: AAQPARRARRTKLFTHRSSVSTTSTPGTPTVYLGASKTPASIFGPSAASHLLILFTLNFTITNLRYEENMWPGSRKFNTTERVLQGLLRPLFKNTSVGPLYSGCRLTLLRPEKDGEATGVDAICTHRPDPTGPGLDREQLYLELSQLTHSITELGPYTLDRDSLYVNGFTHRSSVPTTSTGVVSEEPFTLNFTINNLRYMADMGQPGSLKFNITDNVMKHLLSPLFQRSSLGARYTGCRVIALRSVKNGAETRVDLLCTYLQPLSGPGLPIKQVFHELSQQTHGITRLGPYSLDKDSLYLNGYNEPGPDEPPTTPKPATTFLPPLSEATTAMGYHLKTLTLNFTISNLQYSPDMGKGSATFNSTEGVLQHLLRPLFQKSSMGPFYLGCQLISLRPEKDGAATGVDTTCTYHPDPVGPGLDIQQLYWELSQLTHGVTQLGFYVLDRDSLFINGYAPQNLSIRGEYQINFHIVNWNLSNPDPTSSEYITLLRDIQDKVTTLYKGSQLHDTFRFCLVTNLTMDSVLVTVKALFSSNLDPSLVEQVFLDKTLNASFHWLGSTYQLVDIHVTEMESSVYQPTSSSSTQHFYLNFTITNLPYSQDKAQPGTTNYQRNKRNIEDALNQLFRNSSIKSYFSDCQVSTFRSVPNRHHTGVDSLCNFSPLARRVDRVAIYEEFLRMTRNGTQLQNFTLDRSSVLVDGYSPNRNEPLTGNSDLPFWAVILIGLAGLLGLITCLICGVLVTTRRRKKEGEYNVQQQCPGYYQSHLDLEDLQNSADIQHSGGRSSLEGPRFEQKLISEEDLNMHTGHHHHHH
assay-overview: flow cytometry, NIH/3T3 cells expressing O772P 3-repeat TM; Ab 2 µg/ml
measured-endpoint: % positive cells (%)
Respond numerically; units are % and should not be typed.

Guide cases for % positive cells, answers given:
monoclonal antibody 776.1 (antibody, V domains shown) VH: EVQLQQSGPELVKPGASVKISCKASGYTFTDYNIHWVKQSHGKILEWIGYIYPYNGVSDYNQNFKSKATLIVDNSSNTAYMELRSLTSEDSAVYYCARWDFGSGYYFDYWGQGTTLTVSS VL: QIVLSQSPAILFASPGETVTMTCRASSSVIYMCWNQQKPGSSPKPWIYGTSTLASGVPTRFSGSGSGTSYSLTISRVEAEDAATYYCQQWSSNPFTFGSGTKLEI	86
monoclonal antibody 117.1 (antibody, V domains shown, Murine hybridoma antibody) VH: QVTLKESGPGILQPSQTLSLTCSFSGFSLSTPGMGVGWIRQPSGKGLEWLAHIWWDDFKRDNPALKSRLTISKDTSSSQVFLKIASVDTADTATYYCVRVDGNFLSWYFDVWGAGTTVTVSS VL: DAVMTQTPLSLPVSLGDQASISCRSSQSLVHSNGNTYLHWYLQKPGQSPKLLIYKVSNRFSGVPDRFSGSGSGTDFTLRISRVEAEDLGVYFCSQSRYVPWTFGGGTKLEIK	83
monoclonal antibody 368.1 (antibody, V domains shown, Murine hybridoma antibody) VH: EVQLQQSGPELVRTGASVKISCKASGYSFTGFYMHWVKQSLGKSLEWIGYVSCYTGATTYTQKFKGKATFTVDTSSSTAYMQLNSLTSEDSAVYYCAREGDYYSMDFWGQGTSVTVSS VL: DVVMTQTPLSLPVSLGDQASISCRSSQSLERTNGNTYLHWYLQKPGQSPKLLIYKVSSRFSGVPDRFSGSGSGTDFTLKISRVEAEDLGIYFCSQTTHGPPTCGGGTKLEIK	86

# ---- query binder ----
Problem: Return reported % positive cells; argument: monoclonal antibody 501.1 (antibody, V domains shown, Murine hybridoma antibody) VH: QIQLVQSGPELKKPGETVQISCKASGYIFTDYGMNWVKQAPGKGLKWMGCINTYTGETIYSDDFRGRFAISLETSASTAFIQINNLKNEDAATYFCARGNYRDAIDYWGQGTSVTVSS VL: DIKMTQSPSSIYASLGERVTITCKASQDIKSYLSWYQQKPWKSPKTLIYYATTLADGVPSRFSGSGSGQDYSLIINSLESDDIATYFCLHHDESPFTFGSGTKLEI
Solution: 89
